- target.entity: Mu-type opioid receptor (Homo sapiens) + Delta-type opioid receptor (Homo sapiens) (UniProt P35372+P41143)
- Sequence (P35372 whole entry, looked up): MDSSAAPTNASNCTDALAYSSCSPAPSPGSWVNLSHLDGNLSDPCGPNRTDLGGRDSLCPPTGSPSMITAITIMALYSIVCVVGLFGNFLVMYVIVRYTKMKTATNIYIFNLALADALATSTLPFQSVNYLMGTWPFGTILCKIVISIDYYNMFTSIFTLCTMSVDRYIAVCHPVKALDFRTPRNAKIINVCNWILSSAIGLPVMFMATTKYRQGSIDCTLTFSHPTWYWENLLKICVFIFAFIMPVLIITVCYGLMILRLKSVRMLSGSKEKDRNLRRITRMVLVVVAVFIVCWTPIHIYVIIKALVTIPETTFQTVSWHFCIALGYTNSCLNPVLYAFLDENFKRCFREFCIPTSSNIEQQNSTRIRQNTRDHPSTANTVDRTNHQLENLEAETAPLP
- Sequence (P41143 whole entry, looked up): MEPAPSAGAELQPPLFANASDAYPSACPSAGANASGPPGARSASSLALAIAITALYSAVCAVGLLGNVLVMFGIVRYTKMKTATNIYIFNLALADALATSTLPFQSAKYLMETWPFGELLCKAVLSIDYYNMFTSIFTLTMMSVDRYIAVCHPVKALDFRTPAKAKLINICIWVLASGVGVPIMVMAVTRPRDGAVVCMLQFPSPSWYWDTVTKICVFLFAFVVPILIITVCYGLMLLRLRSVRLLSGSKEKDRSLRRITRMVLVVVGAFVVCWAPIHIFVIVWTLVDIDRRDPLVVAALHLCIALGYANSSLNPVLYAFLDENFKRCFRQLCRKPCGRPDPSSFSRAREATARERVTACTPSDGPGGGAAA
- assay.text: agonists of OPRM1-OPRD1 heterodimerization, primary screen, cell-based, luminescence (AID 504326);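 note: 0% = vehicle-treated cells and 100% = reference agonist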
- stated.conditions: cells, at 9.3 µM, active compounds read high
In all, about 340,000 compounds went through this assay and about 990 (0.29%) were called active. The entries come from a sample that favours actives as a whole.
quantity.kind: activation (%)
Please respond with the number in % and leave the unit unwritten.

Prompt line: activation lookup needed for Cc1cccc(Oc2c([N+](=O)[O-])c(=O)n(C)c3ccccc23)c1 , thanks.
Response line: 1.78

Prompt line: Now the same for O=C(CSc1nnc(CN2CCCC2)n1-c1ccc(F)cc1)c1ccc2c(c1)OCO2
Response line: -2.96

Prompt line: Note, next up: Cc1ccc(CNC(=O)[C@@H](NC(=O)Cc2ccccc2)C(C)C)cc1
Response line: 2.39

Prompt line: Also check C=CCOc1ccc(/C=C/C(=O)OC(C)C(=O)Nc2ccc(NC(C)=O)cc2)cc1 (configuration not stated)
Response line: -0.11

Prompt line: Try CC(OC(=O)/C=C/c1ccccc1)C(=O)NC1CCCCC1C (configuration not stated) next.
Response line: -0.81

Prompt line: Continue with COC(=O)c1ccc(C23CC4(C2)[C@H](CN(Cc2cccnc2)[C@@H]4c2ccccc2)C3c2ccc(Cl)nc2)cc1 (some centres not stated)
Response line: 19.2

Prompt line: Likewise for Oc1cccc2ccc(/C=C/c3ccc(Br)s3)nc12 ?
Response line: 1.72

Prompt line: Try this compound too: CC(OC(=O)/C=C/c1ccccc1)C(=O)Nc1ccc(C(N)=O)cc1 (configuration not stated)
Response line: 34.1

Prompt line: What about this compound? CCC(C(=O)OCC(=O)Nc1c(Cl)cc(Cl)cc1Cl)c1ccccc1 (configuration not stated)
Response line: 6.24

Prompt line: Would you kindly repeat that for Cc1ccc(CNC(=O)CC(NC(=O)c2ccccc2)c2ccccc2)cc1 (configuration not stated) ?
Response line: 22.7

Prompt line: Proceed to CCC(C(=O)OCC(=O)Nc1ccc(C(=O)Nc2ccc(OC)cc2)cc1)c1ccccc1 (configuration not stated)
Response line: 19.4

Prompt line: Same read-out for c1ccc(-c2ccccc2OCCN2CCCCC2)cc1 ?
Response line: -3.6

Prompt line: Follow-up item: N#CC(C(=O)c1ccc(S(=O)(=O)N2CCCCCC2)cc1)c1nc2ccccc2[nH]1 (configuration not stated)
Response line: 24.1

Prompt line: Field entry: CN(CC(=O)NCCc1ccccc1)S(=O)(=O)c1cnc[nH]1
Response line: -1.45

Prompt line: And the next one, O=S(=O)(c1ccc(Br)cc1)N1CCC(c2nc3ccccc3[nH]2)CC1 ?
Response line: 1.07

Prompt line: O=C(Nc1ncccc1O)c1ccc(S(=O)(=O)N2CCCCCC2)cc1 ?
Response line: -4.61

Prompt line: Can you handle CN1CCN(NC(=O)Nc2ccc(Br)cc2)CC1 next?
Response line: -3.59

Prompt line: Also CCOC(=O)N1CCN(c2c(NCCN3CCN(c4ccccc4F)CC3)c(=O)c2=O)CC1 , if possible.
Response line: -1.83

Prompt line: Same thing, different compound: CC1CN(CCCOc2ccccc2-c2ccccc2)CC(C)O1 (configuration not stated)
Response line: 4.64

Prompt line: Quick one: CCOc1ccc(NC(=O)C2CC(=O)N=C(N)S2)cc1 (configuration not stated)
Response line: -2.05

Prompt line: # iterate: CC(C)CC(=O)N=C1SC2CS(=O)(=O)CC2N1CCc1ccccc1 (configuration not stated)
Response line: -2.17

Prompt line: Let us now turn to CN1C(CC(=O)Nc2ccc(Br)cc2)c2ccccc2CC1(C)C (configuration not stated)
Response line: 77.8
